For each record, write down the corresponding Dmax.
Biological target: IKZF2 (Homo sapiens (Human), UniProt Q96SW2+Q9UKS7)
Sequence (Q9UKS7 whole entry): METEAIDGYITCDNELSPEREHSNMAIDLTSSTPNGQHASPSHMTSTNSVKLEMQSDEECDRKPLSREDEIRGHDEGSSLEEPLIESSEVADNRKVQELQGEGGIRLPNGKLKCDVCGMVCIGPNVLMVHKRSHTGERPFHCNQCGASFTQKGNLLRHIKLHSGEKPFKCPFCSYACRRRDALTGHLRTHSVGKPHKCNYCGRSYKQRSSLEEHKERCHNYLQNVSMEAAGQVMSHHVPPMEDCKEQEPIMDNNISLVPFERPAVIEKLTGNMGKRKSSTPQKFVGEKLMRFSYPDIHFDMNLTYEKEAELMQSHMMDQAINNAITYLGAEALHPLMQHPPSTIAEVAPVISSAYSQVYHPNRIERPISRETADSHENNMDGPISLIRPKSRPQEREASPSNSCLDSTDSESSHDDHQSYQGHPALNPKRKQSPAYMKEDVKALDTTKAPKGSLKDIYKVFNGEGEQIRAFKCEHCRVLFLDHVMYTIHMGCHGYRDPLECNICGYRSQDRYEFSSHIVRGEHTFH
Sequence (Q96SW2 whole entry): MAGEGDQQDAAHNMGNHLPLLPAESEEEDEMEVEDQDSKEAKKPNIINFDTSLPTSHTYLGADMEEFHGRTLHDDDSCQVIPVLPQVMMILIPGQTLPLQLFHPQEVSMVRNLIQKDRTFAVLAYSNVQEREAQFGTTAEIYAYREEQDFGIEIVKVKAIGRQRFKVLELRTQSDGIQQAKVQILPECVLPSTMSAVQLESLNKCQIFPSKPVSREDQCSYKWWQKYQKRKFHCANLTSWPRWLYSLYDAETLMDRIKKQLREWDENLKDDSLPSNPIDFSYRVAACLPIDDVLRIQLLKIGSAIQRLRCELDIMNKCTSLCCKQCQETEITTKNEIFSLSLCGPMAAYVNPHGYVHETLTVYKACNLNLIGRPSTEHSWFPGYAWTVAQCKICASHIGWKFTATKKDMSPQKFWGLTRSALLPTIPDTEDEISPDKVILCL
Sequence (Q16531 2-1140 partner): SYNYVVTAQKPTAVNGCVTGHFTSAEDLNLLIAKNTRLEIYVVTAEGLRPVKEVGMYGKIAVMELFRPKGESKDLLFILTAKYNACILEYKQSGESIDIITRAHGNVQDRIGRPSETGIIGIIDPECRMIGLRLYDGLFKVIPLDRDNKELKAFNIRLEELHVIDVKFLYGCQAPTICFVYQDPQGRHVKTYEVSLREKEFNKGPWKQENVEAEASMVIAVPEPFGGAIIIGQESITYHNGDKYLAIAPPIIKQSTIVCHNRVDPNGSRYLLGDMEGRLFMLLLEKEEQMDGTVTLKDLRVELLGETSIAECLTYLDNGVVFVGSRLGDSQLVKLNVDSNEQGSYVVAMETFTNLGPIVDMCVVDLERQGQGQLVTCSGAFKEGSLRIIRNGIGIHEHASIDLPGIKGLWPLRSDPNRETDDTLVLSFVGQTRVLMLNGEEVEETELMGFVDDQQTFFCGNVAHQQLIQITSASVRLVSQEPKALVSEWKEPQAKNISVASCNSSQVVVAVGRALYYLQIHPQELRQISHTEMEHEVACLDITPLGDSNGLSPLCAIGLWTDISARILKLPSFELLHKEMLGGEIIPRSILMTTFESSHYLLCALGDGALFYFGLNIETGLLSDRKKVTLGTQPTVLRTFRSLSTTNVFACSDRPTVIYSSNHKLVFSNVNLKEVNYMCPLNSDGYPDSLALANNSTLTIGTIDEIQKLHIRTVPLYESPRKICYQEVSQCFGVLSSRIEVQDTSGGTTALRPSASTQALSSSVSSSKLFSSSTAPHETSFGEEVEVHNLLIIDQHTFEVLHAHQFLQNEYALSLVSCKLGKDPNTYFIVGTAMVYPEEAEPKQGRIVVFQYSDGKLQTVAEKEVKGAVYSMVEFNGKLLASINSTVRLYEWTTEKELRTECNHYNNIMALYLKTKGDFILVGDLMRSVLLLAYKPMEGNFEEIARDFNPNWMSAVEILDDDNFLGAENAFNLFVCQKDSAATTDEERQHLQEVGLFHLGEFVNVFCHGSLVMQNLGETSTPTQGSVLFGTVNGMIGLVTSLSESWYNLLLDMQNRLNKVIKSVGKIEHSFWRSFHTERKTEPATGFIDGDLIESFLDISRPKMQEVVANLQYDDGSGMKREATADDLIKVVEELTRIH
Assay: In vitro IKZF2 HiBit Assay (HEK293T Flp-in-HiBiT cells)
Type: cell-based
Details: HEK-293T; HEK293T Flp-in-HiBiT cells, 6 hrs incubation; read-out: IKZF2 HiBit Dmax (%)

Reported Dmax for Cn1cc2nc(-c3ccc4c(c3)CN(C3CCC(=O)NC3=O)C4=O)cc(CN3CCCC3)c2n1 (stereo not drawn) : what is it?
> 80%

Form field: reported Dmax of O=C1CCC(N2Cc3c(ccc(-c4cc(CN5CCCC5)c5ccn(C6COC6)c5n4)c3Cl)C2=O)C(=O)N1 (stereo not drawn)
60 to 80%

Report Dmax for Cn1ccc2c(CN3CCC4(CC3)COC4)cc(-c3ccc4c(c3)CN(C3CCC(=O)NC3=O)C4=O)nc21 (stereo not drawn) please.
> 80%

What value of Dmax has been reported for the following compound? CC(c1cc(-c2ccc3c(c2)CN(C2CCC(=O)NC2=O)C3=O)nc2c1ccn2C)N1CCCC1 (stereo not drawn)
< 20%

# query: Dmax of entry CN(C)C(=O)Cn1ccc2c(CN3CCCC3)cc(-c3ccc4c(c3)CN(C3CCC(=O)NC3=O)C4=O)nc21 (stereo not drawn)
20 to 40%

Requested read-out: Dmax. Entry: CC(C)Nc1ccnc2c(CN3CCCC3)cc(-c3ccc4c(c3)CN(C3CCC(=O)NC3=O)C4=O)nc12 (stereo not drawn)
20 to 40%

Find the recorded Dmax belonging to O=C1CCC(N2Cc3cc(-c4cc(CN5CCC(O)C5)c5cc[nH]c5n4)ccc3C2=O)C(=O)N1 (stereo not drawn) and report it.
> 80%

Any idea what Dmax was measured for CO[C@H]1C[C@@H](Oc2ccnc3c(CN4CCCC4)cc(-c4ccc5c(c4)CN(C4CCC(=O)NC4=O)C5=O)nc23)C1 (stereo partly drawn) ?
60 to 80%

// Dmax lookup, key: COC1CCN(Cc2cc(-c3ccc4c(c3)CN(C3CCC(=O)NC3=O)C4=O)nc3c2ccn3C2COC2)CC1 (stereo not drawn)
> 80%

---

Exercise: for every item that follows, state its recorded Dmax.
Biological target: IKZF2 (Homo sapiens (Human), UniProt Q96SW2+Q9UKS7)
Experiment: In vitro IKZF2 HiBit Assay (HEK293T Flp-in-HiBiT cells)
Assay type: cell-based
Settings: HEK-293T; HEK293T Flp-in-HiBiT cells, 6 hrs incubation; read-out: IKZF2 HiBit Dmax (%)
Experimental: In Vitro IKZF2 HiBit Assay The HiBiT protein tagging system was applied to modified HEK293T Flp-in-HiBiT cells (polyclone) via a CRISPR/Cas9-mediated insertion of the HiBiT peptide tag (Promega™) to the N-terminus of the IKZF2 gene locus (Neon™ transfection system). Test and reference compounds are diluted from 1 mM at 3 folds for 11 doses. […] The amount of Nano-Glo® HiBiT lytic reagent needed to perform the desired experiments is calculated. […] After briefly centrifuge, the plate is read on Envision. […]

Look up Dmax for this compound: O=C1CCC(N2Cc3cc(-c4cc(CN5CCC6(CC5)COC6)c5ccn(C6COC6)c5n4)ccc3C2=O)C(=O)N1 (stereo not shown)
60 to 80%

What measured Dmax goes with CC(C)Oc1n[nH]c2c(CN3CCCC3)cc(-c3ccc4c(c3)CN(C3CCC(=O)NC3=O)C4=O)nc12 (stereo not shown) ?
60 to 80%

# input compound: O=C1CCC(N2Cc3cc(-c4cc(CN5CCCC5)c5nccc(OC6CC6)c5n4)ccc3C2=O)C(=O)N1 (stereo not shown) ; wanted: its Dmax
> 80%

Entry under review: COC1CCN(Cc2cc(-c3ccc4c(c3)CN(C3CCC(=O)NC3=O)C4=O)nc3c2ccn3C)C1 (stereo not shown) . Reported Dmax?
> 80%

Would you mind telling me what Dmax value was observed for CC(C)CC1CN(Cc2cc(-c3ccc4c(c3)CN(C3CCC(=O)NC3=O)C4=O)nc3[nH]ccc23)CC1O (stereo not shown) ?
> 80%

# lookup: Dmax of CS(=O)(=O)C1CCN(Cc2cc(-c3ccc4c(c3)CN(C3CCC(=O)NC3=O)C4=O)nc3c2ccn3C2COC2)CC1 (stereo not shown)
40 to 60%

Request the reported Dmax associated with CCNc1n[nH]c2c(CN3CCCC3)cc(-c3ccc4c(c3F)CN(C3CCC(=O)NC3=O)C4=O)nc12 (stereo not shown)
> 80%

For the compound shown here, O=C1CCC(N2Cc3cc(-c4cc(CN5CC(F)C5)c5cc[nH]c5n4)ccc3C2=O)C(=O)N1 (stereo not shown) , give the reported Dmax.
> 80%

Name the recorded Dmax for Cn1ccc2c(C3CCCCN3)cc(-c3ccc4c(c3)CN([C@H]3CCC(=O)NC3=O)C4=O)nc21 (stereo partly shown) .
40 to 60%

Please give the measured Dmax for this compound: CC(C)Oc1ccnc2c(CN3CCCC3)cc(-c3ccc4c(c3)CN(C3CCC(=O)NC3=O)C4=O)nc12 (stereo not shown)
60 to 80%

Form field: reported Dmax of Cn1nc(N)c2nc(-c3ccc4c(c3)CN(C3CCC(=O)NC3=O)C4=O)cc(CN3CCCC3)c21 (stereo not shown)
> 80%

Recorded Dmax of O=C1CCC(N2Cc3cc(-c4cc(CN5CCCC5)c5ccn(C6CCCC6)c5n4)ccc3C2=O)C(=O)N1 (stereo not shown) , please.
60 to 80%

Quick one: Dmax for O=C1CCC(N2Cc3cc(-c4cc(CN5CCCC5)c5[nH]nc(C6CCC6)c5n4)ccc3C2=O)C(=O)N1 (stereo not shown) ?
60 to 80%

# Dmax lookup, item Cn1ccc2c(CN3CCc4ccccc4C3)cc(-c3ccc4c(c3)CN(C3CCC(=O)NC3=O)C4=O)nc21 (stereo not shown)
> 80%

GET /values?readout=Dmax&item= N#CCn1ccc2c(CN3CCCC3)cc(-c3ccc4c(c3)CN(C3CCC(=O)NC3=O)C4=O)nc21 (stereo not shown)
60 to 80%

Param item = CC(C)Nc1n[nH]c2c(CN3CC4COCC4C3)cc(-c3ccc4c(c3F)CN(C3CCC(=O)NC3=O)C4=O)nc12 (stereo not shown) ; retrieve measured Dmax.
> 80%

# lookup: Dmax of Cn1ccc2c(CN3CC4CC4C3)cc(-c3ccc4c(c3)CN(C3CCC(=O)NC3=O)C4=O)nc21 (stereo not shown)
> 80%

Quick one: Dmax for O=C1CCC(N2Cc3cc(-c4cc(CN5CC6COCC6C5)c5ccn(C6COC6)c5n4)ccc3C2=O)C(=O)N1 (stereo not shown) ?
> 80%

# input compound: Cn1ccc2c(CN3CC4(COC4)C3)cc(-c3ccc4c(c3)CN(C3CCC(=O)NC3=O)C4=O)nc21 (stereo not shown) ; wanted: its Dmax
> 80%

Item Cn1ccc2c(CN3CCC(C#N)CC3)cc(-c3ccc4c(c3)CN(C3CCC(=O)NC3=O)C4=O)nc21 (stereo not shown) has what recorded Dmax?
> 80%

Quick one: Dmax of Nc1n[nH]c2c(CN3CC4COCC4C3)cc(-c3ccc4c(c3)CN(C3CCC(=O)NC3=O)C4=O)nc12 (stereo not shown) ?
60 to 80%

Can you look up the measured Dmax of CN(C)c1n[nH]c2c(CN3CCCC3)cc(-c3ccc4c(c3)CN(C3CCC(=O)NC3=O)C4=O)nc12 (stereo not shown) for me?
> 80%
